target-entity: AHR (Mus musculus, UniProt P30561)
Sequence (P30561 whole entry P471L/N533S/M589L, form open): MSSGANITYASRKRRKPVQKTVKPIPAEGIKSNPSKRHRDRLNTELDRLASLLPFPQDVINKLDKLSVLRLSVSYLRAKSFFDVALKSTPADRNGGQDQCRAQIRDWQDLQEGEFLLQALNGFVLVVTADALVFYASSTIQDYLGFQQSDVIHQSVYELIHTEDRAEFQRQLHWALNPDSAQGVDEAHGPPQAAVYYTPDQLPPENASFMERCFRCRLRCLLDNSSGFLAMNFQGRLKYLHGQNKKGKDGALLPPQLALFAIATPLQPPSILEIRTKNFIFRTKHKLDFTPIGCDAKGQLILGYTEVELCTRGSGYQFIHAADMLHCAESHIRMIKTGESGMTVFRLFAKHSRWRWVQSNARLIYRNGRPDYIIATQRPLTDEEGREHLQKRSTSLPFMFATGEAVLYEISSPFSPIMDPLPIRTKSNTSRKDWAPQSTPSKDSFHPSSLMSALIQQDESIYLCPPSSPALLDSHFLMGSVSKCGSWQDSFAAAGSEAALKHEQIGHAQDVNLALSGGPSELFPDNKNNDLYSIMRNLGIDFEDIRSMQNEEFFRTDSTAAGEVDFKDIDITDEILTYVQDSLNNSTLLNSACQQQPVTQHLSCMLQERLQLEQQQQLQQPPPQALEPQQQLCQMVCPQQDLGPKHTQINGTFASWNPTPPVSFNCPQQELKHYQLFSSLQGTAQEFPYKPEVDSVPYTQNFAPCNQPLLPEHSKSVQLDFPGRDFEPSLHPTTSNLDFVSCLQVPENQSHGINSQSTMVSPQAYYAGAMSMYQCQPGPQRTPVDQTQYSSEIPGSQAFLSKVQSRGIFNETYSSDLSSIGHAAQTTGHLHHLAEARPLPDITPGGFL
experiment-description: In vitro assay 3: antagonism in mouse cell line (AHR transactivation, firefly luciferase reporter, kynurenic acid prestimulated)
Assay type: cell-based
condition-summary: mouse Hepa 1c1c7 cells, 200 μM kynurenic acid, 20 hours, read-out: AHR Antagonism Mouse IC50
Experimental: Examples were tested in selected biological assays one or more times. […] Firefly luciferase activity was determined by the SteadyGlo Luciferase Assay System (Promega, #E2550).
pIC50: −log10 of the molar value.
quantity-kind: pIC50

chemical-string	target-entity	pIC50
COc1ccc(-c2nc3c4ccc(F)cc4nc(N[C@@H]4CNCCNC4=O)n3n2)cc1	AHR (Mus musculus, UniProt P30561)	7.79
O=C1NCCCC[C@H]1Nc1nc2c(Br)cccc2c2nc(-c3cn[nH]c3)nn12	AHR (Mus musculus, UniProt P30561)	7.17
O=C1NCCNC[C@H]1Nc1nc2ccccc2c2nc(-c3ccc(Br)cc3Cl)nn12	AHR (Mus musculus, UniProt P30561)	8.29
O=C1NCCCC[C@H]1Nc1nc2ccccc2c2nc(-c3ccccc3C(F)(F)F)nn12	AHR (Mus musculus, UniProt P30561)	8.49
O=C1NCCCC[C@H]1Nc1nc2ccccc2c2nc(-c3cnn(CC4CC4)c3)nn12	AHR (Mus musculus, UniProt P30561)	8.57

A = O=C1NCCCC[C@H]1Nc1nc2ccccc2c2nc(-c3cc[nH]n3)nn12
B = Cn1cncc1-c1nc2c3ccccc3nc(N[C@@H]3CCCCNC3=O)n2n1
Problem: Of A and B , which carries the smaller reported pIC50 figure? Let me know the label of the one you choose.
Result: A
(A: 6.81, B: 7.06)

The reported numbers originate from patent US20230113037A1.
